src = paper PMC7954794

tested_target: NCK2 3|2|1 full-length recombinant protein (SH3-shuffled, tag-free) (mouse, UniProt O55033 198-256; O55033 60-197; O55033 2-59; O55033 257-380)
Sequence (O55033 other isoform, or with tags, fused parts or gaps): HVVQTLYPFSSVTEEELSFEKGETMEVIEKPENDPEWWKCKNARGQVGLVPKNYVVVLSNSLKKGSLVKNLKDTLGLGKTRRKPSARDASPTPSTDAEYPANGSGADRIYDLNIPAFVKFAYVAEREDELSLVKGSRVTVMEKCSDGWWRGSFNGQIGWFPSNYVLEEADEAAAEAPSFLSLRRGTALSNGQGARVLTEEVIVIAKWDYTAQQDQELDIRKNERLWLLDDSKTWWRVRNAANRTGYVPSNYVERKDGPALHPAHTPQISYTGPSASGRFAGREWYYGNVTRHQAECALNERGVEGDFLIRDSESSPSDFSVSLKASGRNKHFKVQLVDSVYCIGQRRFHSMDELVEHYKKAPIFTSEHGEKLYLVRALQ
assay_comment: FP
No end group written: not given here.
readout_type: Kd (µM)
Give a bare numeral; the unit µM is implied.

Prompt line: Which measured Kd value corresponds to DIQDKPPAPPMRNTST (also: fluorescein isothiocyanate-conjugated (position not given here)) [PAK1 peptide (DIQDKPPAPPMRNTST), fluorescein isothiocyanate-conjugated] ?
Response line: 31.6
